# Species: Rattus norvegicus
# procedureSummary: Open TG-GATES - Regimen: Daily Repeat
# Assay type: toxicity, organism-based, Sprague-Dawley
# Design: regimen Daily Repeat, gender Male, age 6 weeks
# measurementParameters: in vivo, po, 0 mg/kg, […], tissue Plasma, route gavage, dose level Control, time 28 day
Here the recorded ALP is given for each entry.
observedProperty: ALP (IU/L)

>>> assayresult("CCCC(CCC)C(=O)O")
657.8
>>> assayresult("Clc1ccccc1CN1CCc2sccc2C1")
742.8
>>> assayresult("CSc1ccc2c(c1)N(CCC1CCCCN1C)c1ccccc1S2 (stereo unspecified)")
618.8
>>> assayresult("COc1ccc(Cc2nccc3cc(OC)c(OC)cc23)cc1OC")
1231
>>> assayresult("C[C@H](CS)C(=O)N1CCC[C@H]1C(=O)O")
633
>>> assayresult("CC(=O)Oc1ccccc1C(=O)O")
605.4

* * *

# Species: Rattus norvegicus
# procedureSummary: Open TG-GATES - Regimen: Single
# Format: toxicity, organism-based, Sprague-Dawley
# Parameters: regimen Single, gender Male, age 6 weeks
# measurementParameters: in vivo, po, 0 mg/kg, 9 h, tissue Plasma, route gavage, dose level Control
observedProperty: GLC

>>> assayresult("CCc1cc(C(N)=S)ccn1 [ETHIONAMIDE]")
"194.8 mg/dL"
>>> assayresult("COc1ccc(Cc2nccc3cc(OC)c(OC)cc23)cc1OC")
"190.8 mg/dL"
>>> assayresult("Cn1c(=O)c2[nH]cnc2n(C)c1=O.O")
"188 mg/dL"
>>> assayresult("CN(C)CCC=C1c2ccccc2CCc2ccccc21")
"174.8 mg/dL"

* * *

Here the recorded DBIL is given for each entry.
# Species on record: Rattus norvegicus
# procedureSummary: Open TG-GATES - Regimen: Single
# Type: toxicity, organism-based, Sprague-Dawley
# Parameters: regimen Single, gender Male, age 6 weeks
# measurementParameters: in vivo, po, 0 mg/kg, 3 h, tissue Plasma, route gavage, dose level Control
observedProperty: DBIL (mg/dL)

>>> assayresult("Clc1ccccc1CN1CCc2sccc2C1")
0.07
>>> assayresult("C[C@H](CS)C(=O)N1CCC[C@H]1C(=O)O")
0.018
>>> assayresult("CN(C)CCC=C1c2ccccc2CCc2ccccc21")
0.01
>>> assayresult("O=C(O)c1cc(/N=N/c2ccc(S(=O)(=O)Nc3ccccn3)cc2)ccc1O")
0.074

* * *

# Organism: Rattus norvegicus
# procedureSummary: Open TG-GATES - Regimen: Daily Repeat
# Type: toxicity, organism-based, Sprague-Dawley
# Design: regimen Daily Repeat, gender Male, age 6 weeks
# measurementParameters: in vivo, po, 0 mg/kg, […], tissue Plasma, route gavage, dose level Control, time 7 day
observedProperty: TC (mg/dL)

>>> assayresult("CN(C)CCC=C1c2ccccc2CCc2ccccc21")
81.2
>>> assayresult("Cn1c(=O)c2[nH]cnc2n(C)c1=O.O")
69.4
>>> assayresult("COc1ccc2c(c1)c(CC(=O)O)c(C)n2C(=O)c1ccc(Cl)cc1")
69.2
>>> assayresult("CCCC(CCC)C(=O)O")
68.8
>>> assayresult("Clc1ccccc1CN1CCc2sccc2C1")
77.8
>>> assayresult("O=C(O)c1cc(/N=N/c2ccc(S(=O)(=O)Nc3ccccn3)cc2)ccc1O")
78.8

* * *

Here the recorded MCH is given for each entry.
# Species: Rattus norvegicus
# procedureSummary: Open TG-GATES - Regimen: Daily Repeat
# Type: toxicity, organism-based, Sprague-Dawley
# Set-up: regimen Daily Repeat, gender Male, age 6 weeks
# measurementParameters: in vivo, po, 0 mg/kg, […], tissue Blood, route gavage, dose level Control, time 7 day
observedProperty: MCH (pg)

>>> assayresult("CCc1cc(C(N)=S)ccn1 [ETHIONAMIDE]")
21.4
>>> assayresult("Clc1ccccc1CN1CCc2sccc2C1 [TICLOPIDINE]")
21.3
>>> assayresult("NC(=O)N1c2ccccc2C=Cc2ccccc21 [CARBAMAZEPINE]")
20.8
>>> assayresult("CN(C)CCC=C1c2ccccc2CCc2ccccc21 [AMITRIPTYLINE]")
20.8

Every entry's value here was drawn from ChEMBL document CHEMBL3885861.
